The values you see were collected from patent US7235557B2.

- TARGET_DESC: purified recombinant human PARP (Homo sapiens)
- Construct: purchased Trevigan (Gaithersburg, Md.)
- Sequence (P09874 whole entry): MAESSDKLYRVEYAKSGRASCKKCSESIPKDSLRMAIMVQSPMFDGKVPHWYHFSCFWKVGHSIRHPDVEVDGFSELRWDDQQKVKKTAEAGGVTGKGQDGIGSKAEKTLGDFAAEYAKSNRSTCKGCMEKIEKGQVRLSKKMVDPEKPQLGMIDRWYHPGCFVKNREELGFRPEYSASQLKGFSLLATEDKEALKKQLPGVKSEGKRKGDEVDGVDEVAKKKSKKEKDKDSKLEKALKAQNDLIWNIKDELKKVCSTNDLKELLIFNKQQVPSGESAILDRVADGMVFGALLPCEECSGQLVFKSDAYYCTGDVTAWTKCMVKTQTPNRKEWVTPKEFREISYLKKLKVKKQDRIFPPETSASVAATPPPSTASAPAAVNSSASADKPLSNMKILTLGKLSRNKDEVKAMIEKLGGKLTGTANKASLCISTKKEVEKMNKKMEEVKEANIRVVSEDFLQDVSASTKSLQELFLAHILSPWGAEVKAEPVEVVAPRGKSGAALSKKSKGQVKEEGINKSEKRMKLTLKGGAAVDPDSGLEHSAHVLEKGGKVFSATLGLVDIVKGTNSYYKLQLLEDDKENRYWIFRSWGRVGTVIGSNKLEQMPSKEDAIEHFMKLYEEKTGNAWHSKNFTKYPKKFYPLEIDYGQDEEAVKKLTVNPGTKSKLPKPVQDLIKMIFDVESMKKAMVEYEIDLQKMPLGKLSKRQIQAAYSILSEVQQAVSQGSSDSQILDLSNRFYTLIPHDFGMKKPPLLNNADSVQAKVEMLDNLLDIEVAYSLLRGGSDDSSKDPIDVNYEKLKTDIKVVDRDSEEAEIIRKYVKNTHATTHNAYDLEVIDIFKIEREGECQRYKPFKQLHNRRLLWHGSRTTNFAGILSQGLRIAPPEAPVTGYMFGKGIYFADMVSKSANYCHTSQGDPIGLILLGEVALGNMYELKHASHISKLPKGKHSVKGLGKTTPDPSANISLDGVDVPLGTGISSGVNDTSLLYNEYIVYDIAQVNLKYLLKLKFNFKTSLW
- TEST_DETAILS: PARP enzyme assay (IC50)
- Assay type: biochemical
- RUN_PARAMETERS: approximate IC50 values, [3H]NAD, read-out: IC50
Measured IC50, listed per entry for reference.
Number only, in nM; omit the unit.

The examples below pair each entry with its known result.
[
  {
    "COMPOUND": "O=C1NCCn2c(O)nc3cccc1c32",
    "UNIT_INFO": "nM",
    "IC50": 1400
  },
  {
    "COMPOUND": "O=C1NCCn2c(CN3CCCc4ccccc43)nc3cccc1c32",
    "UNIT_INFO": "nM",
    "IC50": 818
  },
  {
    "COMPOUND": "O=c1[nH]c2ccc(O)nc2c2ccccc12",
    "UNIT_INFO": "nM",
    "IC50": 114
  },
  {
    "COMPOUND": "O=C1NCCn2c(-c3cccc(Br)c3)nc3cccc1c32",
    "UNIT_INFO": "nM",
    "IC50": 106
  },
  {
    "COMPOUND": "O=C1NN=C(CN2CCCCC2)c2c[nH]c3cccc1c23",
    "UNIT_INFO": "nM",
    "IC50": 27
  },
  {
    "COMPOUND": "CC(C)(C)OC(=O)n1cc2c3c(cccc31)C(=O)NCC2",
    "UNIT_INFO": "nM",
    "IC50": 20000
  },
  {
    "COMPOUND": "CCC(=O)Nc1cnc2c(c1)[nH]c(=O)c1ccccc12",
    "UNIT_INFO": "nM",
    "IC50": 111
  },
  {
    "COMPOUND": "COc1ccc2c(c1)c(=O)[nH]c1cccnc12",
    "UNIT_INFO": "nM",
    "IC50": 4150
  }
]

Query: // fetch purified recombinant human PARP (Homo sapiens) IC50 for `CN1CCN(Cc2nc3cccc4c3n2CCNC4=O)CC1`
Result: 1570

Query: Please state recorded IC50 (tested on purified recombinant human PARP (Homo sapiens)) of `O=C1NCCn2c(-c3ccc(-c4cccc(Cl)c4)o3)nc3cccc1c32`
Result: 200

Query: Tell me reported IC50 for O=C1NCCn2c(CN3CCCCC3CO)nc3cccc1c32 (stereo not drawn) , tested with purified recombinant human PARP (Homo sapiens).
Result: 337

Query: Tell me reported IC50 for `O=C1NN=C(Cc2ccccc2)c2c[nH]c3cccc1c23` , tested with purified recombinant human PARP (Homo sapiens).
Result: 64

====

- TARGET_DESC: purified recombinant human PARP (Homo sapiens)
- Construct: purchased Trevigan (Gaithersburg, Md.)
- TEST_DETAILS: PARP enzyme assay (IC50)
- Format: biochemical
- RUN_PARAMETERS: approximate IC50 values, [3H]NAD, read-out: IC50
Measured IC50 accompanies every entry in the list below.
Value expressed in nM; do not type the unit.

[
  {
    "SMILES_REPRESENTATION": "O=C1NCCn2c(CN3CCCCCC3)nc3cccc1c32",
    "UNIT_INFO": "nM",
    "MEASURED_NUMBER": 1000
  }
]

Query: Look at this compound and give its reported IC50. `CC(C)N1CCN(CC(=O)Nc2cnc3c(c2)[nH]c(=O)c2ccccc23)CC1`
Result: 86

Query: Look up IC50: `O=C1NCCn2c(CN3CCCCCCC3)nc3cccc1c32`
Result: 600

Query: GET /values?readout=IC50&item= `O=C(NCCN1CCCCC1)c1cccc(-c2nc3cccc4c3n2CCNC4=O)c1`
Result: 376

Query: Give its IC50 value. Item: `O=C1NCCn2c(CN3CCN(c4ccccc4)CC3)nc3cccc1c32`
Result: 1900

Query: Find the recorded IC50 belonging to `CC(C)(C)OC(=O)N1CCN(Cc2nc3cccc4c3n2CCNC4=O)CC1` and report it.
Result: 266

Query: Using the record for `Cc1cccc(-c2nc3cccc4c3n2CCNC4=O)c1` , report its IC50.
Result: 97
